Kindly supply the reported MIC values for the records listed here.
test system: Escherichia coli; experiment: Antibacterial activity against Escherichia coli JM109 after 24 hrs by microbroth dilution method; format: functional; details: JM109, 24 h
Give the quantity in µg/mL, number only.

Field MIC (entry CCn1cc(C(=O)O)c(=O)c2cc(F)c(N3CCN(CC4CO4)CC3)cc21 (centres undefined) ) reads 2

Field MIC (entry Cc1nc(N2CCOCC2)c([N+](=O)[O-])n1CC(O)CNC1CCN(c2c(F)cc3c(=O)c(C(=O)O)cn(C4CC4)c3c2Cl)C1 (centres undefined) ) reads 0.5

Field MIC (entry Cc1ncc([N+](=O)[O-])n1CC(O)CN1CCN(c2cc3c(cc2F)c(=O)c(C(=O)O)cn3C2CC2)CC1 (centres undefined) ) reads 16

Field MIC (entry NC1CCN(c2c(F)cc3c(=O)c(C(=O)O)cn(C4CC4)c3c2Cl)C1 (centres undefined) [CLINAFLOXACIN] ) reads 1
